Would you kindly list %Inh for each of these compounds?
- Tested on: IRAK3
- measurementConditions: concentration: 1 μM, replicates: in singlicate; n = 1;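 further: KINOMEscan kinase panel screen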
One number for each entry, in %.

Known results for compounds:
COc1cc(Nc2nccc(N3CCC(NC(=O)c4cccc(NC(C)=O)c4)C3)n2)cc(OC)c1OC (stereo not drawn); 85
CCCCCc1nc2c(N)ncnc2n1CCCCC; 0
C[C@@H](Oc1cc(-n2cnc3ccc(NC(=O)NC(C)(C)C)cc32)sc1C(N)=O)c1ccccc1Cl; 12
Cl.Nc1ncnc2occ(-c3ccc(NC(=O)Nc4cc(C(F)(F)F)ccc4F)cc3)c12; 0
COc1ccc(Nc2nccc(N3CCC(NC(=O)Nc4cccc(C(C)=O)c4)C3)n2)cc1 (stereo not drawn); 0

Please give %Inh for each item listed below.
1. Cc1ccc(NC(=O)c2ccnc(N3CCN(C)CC3)c2)cc1-c1ccc(C(=O)NCC2CC2)cc1
2. CCn1cnc2c(N)ncnc21

1: 0; 2: 10

Please give %Inh for each item listed below.
1. Cl.Cl.Cl.Fc1ccc(-c2ncn(C3CCNCC3)c2-c2ccnc(Nc3ccccc3)n2)cc1
2. N#Cc1c(N2CCOCC2)sc(-c2ccn[nH]2)c1-c1ccc(Cl)cc1

1: 0; 2: 16

* * *

- Test system: EIF2AK1
- measurementConditions: concentration: 1 μM, replicates: in singlicate; n = 1
property: %Inh (%)
One number for each entry, in %.

Known results for compounds:
O=C(c1ccc(-c2cc(-c3c[nH]nc3-c3ccccn3)ccn2)cc1)N1CCOCC1 [GW812171]; 0
NS(=O)(=O)CCc1cccc(Nc2nccc(-c3c(-c4cccc(NC(=O)c5c(F)cccc5F)c4)nn4ccccc34)n2)c1 [GSK336735]; 0

Please give %Inh for each item listed below.
1. CN(C(=O)c1ccc(-c2cc(-c3c[nH]nc3-c3ccccn3)ccn2)cc1)C1CCOCC1 [GW810083]
2. CCc1nc(-c2cccc(C)c2)c(-c2ccnc(NCc3ccccc3)c2)s1
3. CNc1ncnc2[nH]ncc12 [SKF-18355]
4. Nc1nc(-c2ccc3c(N)n[nH]c3c2)cc(N2CCCC2)n1 [GSK2227430]
5. O=C(Nc1cccc(-c2nn3ncccc3c2-c2ccnc(Nc3cccc(C(F)(F)F)c3)n2)c1)c1c(F)cccc1F [GSK299495]
6. COc1ccc(COc2cc(-n3cnc4ccccc43)sc2C(N)=O)cc1 [GSK1024304]

[0, 0, 0, 0, 18, 0]

Please give %Inh for each item listed below.
1. Cc1cn2c(=O)cc(N3CCOCC3)nc2n1Cc1cccc(Cl)c1Cl [GSK2334006]
2. Cn1ccc2ncnc(Oc3ccc(NC(=O)Nc4ccncc4)c(Cl)c3)c21
3. Fc1ccc(-c2nn3c(OCC(F)(F)F)cccc3c2-c2ccncc2)cc1 [GW514784]
4. COCCNC(=O)c1ccc(-c2cc(C(=O)NC3CC3)cc(F)c2C)cc1 [GW868318]
5. NCC(NC(=O)c1cc(-c2cn[nH]c2)c(-c2ccnc3[nH]ccc23)s1)c1ccccc1.O=C(O)C(F)(F)F.O=C(O)C(F)(F)F (stereo not drawn) [GSK1325775]
6. O=C(Nc1n[nH]c2cc(-c3cccc(F)c3)ccc12)C1CC1 [SB-735464]
7. CC(C)(C)n1cnc2c(N)ncnc21 [SKF-97359]

[2, 0, 0, 22, 0, 0, 0]

* * *

- Test system: S6K1
- measurementConditions: concentration: 1 μM, replicates: in singlicate; n = 1
property: %Inh (%)
Numbers only, in %.

Known results for compounds:
O=C(NCCNc1ccnc(Nc2ccc(F)cc2)n1)c1cc2ccccc2s1; 0
CN1c2ccc(NCc3ccc(F)cc3)cc2-c2c(cnn2C)S1(=O)=O; 10
N#Cc1ccc(-c2cc(-c3c[nH]nc3-c3ccccn3)ccn2)cc1; 4
Cc1nnc(-c2ccc3occ(-c4ccc(C(C)O)cc4)c3c2)o1 (centres unmarked); 0
Cn1ccc2ncnc(Oc3ccc(NC(=O)Nc4ccncc4)c(Cl)c3)c21; 0

Please give %Inh for each item listed below.
1. CN(C(=O)c1ccc(-c2cc(-c3c[nH]nc3-c3ccccn3)ccn2)cc1)C1CCOCC1
2. Fc1ccc(-c2ncn(CCCN3CCOCC3)c2-c2ccccn2)cc1
3. O=C(NCCCN1CCOCC1)c1cccc(Nc2nccc(Nc3ccc(Oc4ccccc4)cc3)n2)c1
4. O=c1cc(N2CCOCC2)nc2n(Cc3cccc(F)c3)ccn12
5. O=C(NCCNc1ccnc(Nc2ccc(F)cc2)n1)Nc1ccccc1F
6. O=c1cc(N2CCOCC2)nc2n(Cc3cccc4ccccc34)ccn12
7. COc1ccc(CNC(=O)NC2CCN(c3ccnc(Nc4ccc(OC)cc4)n3)C2)cc1 (centres unmarked)

[0, 0, 0, 0, 9, 0, 2]

Please give %Inh for each item listed below.
1. O=C1NC(=O)C(N2CCc3ccccc32)=C1c1cccc(Cl)c1
2. Cl.Nc1ncnc2occ(-c3ccc(NC(=O)Nc4cc(C(F)(F)F)ccc4F)cc3)c12
3. CN1c2ccc(CNc3ccc(F)cc3)cc2-c2c(cnn2C)S1(=O)=O
4. COc1cc2c(cc1OCCN1CCN(C)CC1)ncc1c3ccc(C#N)cc3[nH]c21
5. CN(C1=C(c2ccccc2)C(=O)NC1=O)c1ccccc1

0
81
0
53
2

Please give %Inh for each item listed below.
1. c1ccc(-c2n[nH]cc2-c2ccnc3ccccc23)nc1
2. O=C(c1ccc(-c2cc(-c3c[nH]nc3-c3ccccn3)ccn2)cc1)N1CCOCC1

1. 1
2. 13

* * *

Would you kindly list %Inh for each of these compounds?
- Test system: MRCKB
- Construct: gene CDC42BPB
- measurementConditions: concentration: 1 μM, replicates: in singlicate; n = 1
One number for each entry, in %.

Known results for compounds:
COc1ccc(Nc2ncc(C#N)c(Nc3ccccc3C(N)=O)n2)cc1N1CCN(C)CC1.Cl [GSK1558669]; 87
COC(=O)Nc1nc2cc(Oc3ccc(NC(=O)Nc4cc(F)ccc4F)cc3)ccc2[nH]1.Cl [GW701424]; 0
Cl.Nc1ncnc2occ(-c3ccc(NC(=O)Nc4cc(C(F)(F)F)ccc4F)cc3)c12 [SB-707548]; 0
O=C(Nc1cccc(-c2nn3ncccc3c2-c2ccnc(Nc3cccc(C(F)(F)F)c3)n2)c1)c1c(F)cccc1F [GSK299495]; 68
CNc1ncnc2[nH]ncc12 [SKF-18355]; 0

Please give %Inh for each item listed below.
1. Cc1c(Cn2c(C)nn3c(=O)cc(N4CCOC(C)C4)nc23)cccc1C(F)(F)F (centres unmarked) [GSK2344444]
2. COc1ccc(S(=O)(=O)NC2CCN(c3cc(C)nc(Nc4cccc(C#N)c4)n3)CC2)cc1.O=C(O)C(F)(F)F [GSK1653539]

[0, 0]

Given Fc1ccc(-c2nn3c(OCC(F)(F)F)cccc3c2-c2ccncc2)cc1 [GW514784] , respond with its %Inh.
32

* * *

- Tested on: NEK3
- measurementConditions: concentration: 1 μM, replicates: in singlicate; n = 1
property: %Inh
Just the number plus its unit, please.

Please give %Inh for each item listed below.
1. Cl.Nc1ncnc2occ(-c3ccc(NC(=O)Nc4cc(C(F)(F)F)ccc4F)cc3)c12 [SB-707548]
2. CNc1ncnc2[nH]ncc12 [SKF-18355]
3. COC(=O)Nc1nc2cc(Oc3ccc(NC(=O)Nc4cc(F)ccc4F)cc3)ccc2[nH]1.Cl [GW701424]

1. 1%
2. 26%
3. 0%

* * *

Would you kindly list %Inh for each of these compounds?
- Test system: ERK4
- Construct: gene MAPK4
- measurementConditions: concentration: 1 μM, replicates: in singlicate; n = 1
Just the number plus its unit, please.

Cc1c2ccc(N(C)c3ccnc(Nc4cccc(S(N)(=O)=O)c4)n3)cc2nn1Cc1ccccc1.Cl.Cl; 0%
O=C1NC(=O)C(N2CCc3ccccc32)=C1c1cccc(Cl)c1; 0%
Cc1nnc(-c2ccc3ncc(-c4ccc(S(C)=O)cc4)n3c2)o1 (stereo not shown); 0%
Cc1c(Cn2c(C)nn3c(=O)cc(N4CCOC(C)C4)nc23)cccc1C(F)(F)F (stereo not shown); 11%

Please give %Inh for each item listed below.
1. CC(C)Oc1ccc2c(-c3ccnc(Nc4ccc(N5CCN(C)CC5)cc4)n3)cnn2n1
2. CCc1ccnc(/C=C/c2n[nH]c3cc(Sc4ccccc4C(=O)NC)ccc23)c1
3. Nc1nccc(-c2c(-c3ccc(F)cc3)ncn2C2CCN(CC(F)(F)F)CC2)n1
4. COc1cc2ncn(-c3cc(OCc4sccc4Cl)c(C(N)=O)s3)c2cc1OC
5. Cc1cn2c(=O)cc(N3CCOCC3)nc2n1Cc1cccc(Cl)c1Cl
6. Cl.Nc1ncnc2occ(-c3ccc(NC(=O)Nc4cc(C(F)(F)F)ccc4F)cc3)c12
7. O=c1cc(N2CCOCC2)nc2n(Cc3cccc(F)c3)ccn12
8. O=C(NCCNc1ccnc(Nc2ccc(F)cc2)n1)c1cc2ccccc2s1

47%
9%
0%
0%
0%
8%
0%
3%

* * *

- System: ADCK3
- Construct: gene CABC1
- measurementConditions: concentration: 1 μM, replicates: in singlicate; n = 1
Would you kindly list %Inh for each of these molecules?

Known results for molecules:
N#Cc1c(N2CCOCC2)sc(-c2ccn[nH]2)c1-c1ccc(Cl)cc1; 12%
Cn1ccc2ncnc(Oc3ccc(NC(=O)Nc4ccncc4)c(Cl)c3)c21; 0%

Please give %Inh for each item listed below.
1. Cc1cccc(-c2nc(Nc3ccc4ncsc4c3)c3ccccc3n2)n1
2. COc1cc2c(cc1OCCN1CCN(C)CC1)ncc1c3ccc(C#N)cc3[nH]c21

0%
0%

Name the value of %Inh reported for Cc1c(Cn2c(C)nn3c(=O)cc(N4CCOC(C)C4)nc23)cccc1C(F)(F)F (centres unmarked) when tested on ADCK3.
3%
